The origin of these recorded values is patent EP0394553A2.

The following molecules are listed with their measured Viable cell count values.
test system: HIV (LAV 1); assay: microbe, parasite or virus in culture; details: 1 mcg/ml, 4-day addition, after 4 days

molecule	Viable cell count / × 10⁴ cells/ml
CCCN1CCN(c2c(F)cc3c(=O)c(C(=O)O)cn4c3c2OCC4C)CC1 (racemic)	220
CC(C)N1CCN(c2c(F)cc3c(=O)c(C(=O)O)cn4c3c2OCC4C)CC1 (racemic)	250
C[C@H]1COc2c(N3CCN(C)CC3)c(F)cc3c(=O)c(C(=O)O)cn1c23 [DR-3355, hemihydrate]	220
CCn1cc(C(=O)O)c(=O)c2cc(F)c(N3CCNCC3)cc21	230
Cl.O.O=C(O)c1cn(C2CC2)c2cc(N3CCNCC3)c(F)cc2c1=O	220
CCn1cc(C(=O)O)c(=O)c2cc(F)c(N3CCNCC3)nc21	220
CC1COc2c(N3CCN(C)CC3)c(F)cc3c(=O)c(C(=O)O)cn1c23 (racemic)	260
CCN1CCN(c2c(F)cc3c(=O)c(C(=O)O)cn4c3c2OCC4C)CC1 (racemic)	240
CCCCN1CCN(c2c(F)cc3c(=O)c(C(=O)O)cn4c3c2OCC4C)CC1 (racemic)	220
